assay: solvent given as SMILES; details: in ClC(Cl)Cl
Readout Type: log10 fluorescence lifetime (log10 of the value in ns)
Use the decimal logarithm of fluorescence lifetime (ns).

The examples below pair each entry with its known result.
>>> df
                    structure_smiles_string   val
0  COc1ccc(-c2oc3cccc4c5c(-c6ccc(OC)c(OC)c6)/c(=N/S(=O)(=O)C(F)(F)F)oc6cccc(c2c34)c65)cc1OC  0.64
1  Cc1ccc(C2=C3C=CC(/C=C/c4ccccc4)=[N+]3[B-](F)(F)n3c(Cl)ccc32)cc1  0.60
2  COc1ccc(-c2nc(-c3ccccc3O)c(-c3ccccc3O)n2-c2ccc(C)cc2)cc1  0.25
3         O=C(O)c1ccccc1Nc1cccc(C(F)(F)F)c1  0.59
4  Cc1nc(-c2ccc(-n3c4ccccc4c4ccccc43)cc2)cc(-c2ccc(-n3c4ccccc4c4ccccc43)cc2)n1  0.59
5  Cc1cc(-c2ccc(-c3ccccc3)cc2)nc(-c2ccc(-n3c4ccccc4c4ccccc43)cc2)n1  0.50

Batch request: log10 fluorescence lifetime for each of the following molecules.
1. CCc1ccc(-n2c3ccccc3c3cc4c(cc32)c2ccccc2n4-c2ccc(CC)s2)s1
2. Cc1cc(=O)oc2cc3c(cc12)c1c2ccccc2c2ccccc2c1c1c2ccccc2c2ccccc2c31
3. CC(C)(C)NC(=O)c1ccc2ccc3cccc4ccc1c2c34
4. COc1cc2c3cc(OC)c(OC)cc3c3cc4c(C)cc(=O)oc4cc3c2cc1OC

Result:
[-0.20, 1.03, 0.88, 0.66]

Q: I'd like to know its log10 fluorescence lifetime. The molecule in question is COc1ccc2cc(-c3ccc([N+](=O)[O-])cc3)ccc2c1
Result: 0.27

###

test: solvent given as SMILES; settings: in Cc1ccccc1
Readout Type: fluorescence lifetime (ns)
Numbers only, in ns.

Compound	Val
CN(C)c1ccc(/C=C/c2nc3c4ccccc4c4ccccc4c3[nH]2)cc1	0.306
COC(=O)/C(C#N)=c1\s/c(=c2/s/c(=C(/C#N)C(=O)OC)c3cc(-c4ccc(OC)cc4)sc23)c2sc(-c3ccc(OC)cc3)cc12	4.36
CC(C)(C)c1ccc2c(c1)c1cc(C(C)(C)C)ccc1n2-c1cccc(-n2c3ccc(C(C)(C)C)cc3c3cc(C(C)(C)C)ccc32)c1C#N	5
CCCCC(CC)CN1C(=O)c2cc(Oc3ccc(C(C)(C)C)cc3)c3c4c(Oc5ccc(OC)cc5)cc5c6c(cc(Oc7ccc(OC)cc7)c(c7c(Oc8ccc(C(C)(C)C)cc8)cc(c2c37)C1=O)c64)C(=O)N(c1c(C(C)C)cccc1C(C)C)C5=O (configuration not stated)	5.25
CCc1ccc(/C=C/c2ccc(-c3nnc(-c4ccc(-c5cc6ccccc6s5)cc4)o3)cc2)cc1	0.56
Cc1ccc(C2=C3C=CC(/C=C/c4ccccc4)=[N+]3[B-](F)(F)n3c(/C=C/c4ccccc4)ccc32)cc1	4.48
CCCCCCCCCCn1nnc(-c2ccc(C#Cc3ccc(C#Cc4ccc(-c5nnn(CCCCCCCCCC)n5)cc4)c4nc5c6ccccc6c6ccccc6c5nc34)cc2)n1	2.52
Cc1cc(C)c(B(c2ccccc2N2c3ccccc3Oc3ccccc32)c2c(C)cc(C)cc2C)c(C)c1	62
CCn1c2sccc2c2c3nsnc3c3c4ccsc4n(CC)c3c21	13
Cc1ccc(C2=C3C=CC(/C=C/c4ccccc4)=[N+]3[B-](F)(F)n3c(Cl)ccc32)cc1	3.68

Your task in this section: give fluorescence lifetime for each listed record.
1. N#Cc1cc2ccc(cc2)c2cccc3cccc(c4ccc(cc4)cc(C#N)c4ccc(cc4)c4cccc5cccc(c6ccc1cc6)c54)c32
2. Cc1ccc(-c2c3ccc([nH]3)c3nc(c(-c4ccc(C#N)cc4)c4ccc([nH]4)c4ccc([nH]4)c(-c4ccc(C)cc4)c4ccc2o4)C=C3)cc1

Result:
20.6
4.39

###

Provide the recorded fluorescence lifetime for the entries that follow.
experiment: solvent given as SMILES; settings: in CC(C)=O
Numbers only, in ns.

The following compounds have reported results that may help.
>>> df
                                   compound    val
0  C#CCN1C(=O)/C(=C/c2cc(OC(C)C)ccc2OC(C)C)N=C1C   2.17
1  CCCCC1=Cc2c3ccc4cccc5ccc(c6cc(-c7ccccc7)n(c26)P1(=O)c1ccccc1)c3c45 (stereo not given)    1.8
2  Cn1c(/C=C/c2ccc(/C=C/c3nc4ccccc4[nH]3)cc2)[n+](C)c2ccccc21   1.15
3  CCC1=C(C)C2=Cc3cc(I)cn3[B-](F)(F)[N+]2=C1C  0.317

Below: the item to evaluate.
Q: Form field: reported fluorescence lifetime of COc1ccc(/C=C/C2=CC(/C=C/c3ccc(OC)c4ccccc34)=[O+][B-](F)(F)O2)c2ccccc12
Result: 1.03

###

assay: solvent given as SMILES; conditions: in C1CCCCC1
For each entry below, report its fluorescence lifetime value.

As a guide, the following entries are already answered.
>>> print(df.to_string())
                    structure_smiles_string      val
0                 O=C1c2ccccc2-c2cccc(O)c21  1.24 ns
1  CC1(C)CC(NCc2ccc3ccc4cccc5ccc2c3c45)CC(C)(C)N1  61.8 ns
2             COC(=O)c1nc(Cl)c(-c2ccccc2)o1  0.67 ns

Q: Given the entry CCCCc1cc2cccc3cc(CCCC)c4cc(-c5cc6[b-]7c(c5)c(CCCC)cc5cccc(cc6CCCC)[n+]75)cc1[b-]4[n+]23 , report its measured fluorescence lifetime.
Result: 20.5 ns

###

assay: solvent given as SMILES; conditions: in CO
Threshold-based label: fluorescence lifetime under 4 ns gives criterion met, fluorescence lifetime not under 4 ns gives criterion not met.

>>> df
                    structure_smiles_string   class_assignment
0  CC1(C)CC(NCc2ccc3ccc4cccc5ccc2c3c45)CC(C)(C)N1  criterion not met
1  C(=C\c1nc2ccccc2[nH]1)/c1ccc(/C=C/c2nc3ccccc3[nH]2)cc1      criterion met
2  COc1ccc(C2=C3C=c4c(oc5ccccc45)=[N+]3[B-](F)(F)n3c2cc2c4ccccc4oc23)cc1  criterion not met
3          Cc1cc(C)cc(NC(=O)c2sc(Br)nc2C)c1      criterion met
4  Cn1cc(-c2nc3ccccc3nc2/C=C/N2CCCC2)c2ccccc21      criterion met
5  CC1(C)C(/C=C/C2=C(c3ccc(C(=O)O)cc3)C(=C/C=C3/N(CCCCS(=O)(=O)[O-])c4ccccc4C3(C)C)/CC2)=[N+](CCCCS(=O)(=O)[O-])c2ccccc21      criterion met
6  Cc1ccccc1C1=C2C=c3c(oc4ccc(C(C)(C)C)cc34)=[N+]2[B-](F)(F)n2c1cc1c3cc(C(C)(C)C)ccc3oc12  criterion not met

Q: hey, is fluorescence lifetime for COc1c2ccccc2c(OC)c2c1c1cc(F)ccc1n2C lower than 4 ns or not?
Result: criterion not met

###

assay: solvent given as SMILES; details: in O
Readout Type: log10(fluorescence lifetime) (log10 of the value in ns)
Please interpret these as log10 of fluorescence lifetime where fluorescence lifetime is in ns.

Molecule	Val
COc1ccc2c(=O)c3c([nH]c2c1)-c1cc(Cl)ccc1NC3(C)C	0.84
CCOC(=O)C1CC(c2c(C#N)c(C)nn2-c2ccccc2)=CN1c1ccc(Br)cc1 (stereo not given)	0.62
[NH3+]c1ccc2ccc([O-])cc2c1	1.13
COc1cc(N(CC(=O)[O-])CC(=O)[O-])c2ncccc2c1	-0.08
Cc1cc(=O)c2ccc(N)cc2o1	0.74

Go through the list and state log10(fluorescence lifetime) for each entry.
1. NCCc1c[nH]c2ccc(O)cc12
2. Nc1ccc2c(c1)Cc1ccccc1-2
3. CC1(C)C(/C=C/C2=C(c3ccc(C(=O)O)cc3)C(=C/C=C3/N(CCCCS(=O)(=O)[O-])c4ccc5ccccc5c4C3(C)C)/CCC2)=[N+](CCCCS(=O)(=O)[O-])c2ccc3ccccc3c21
4. CN1/C(=C/C=C/C2=[N+](CCCCCC(=O)O)c3ccc(S(=O)(=O)[O-])cc3C2(C)C)C(C)(C)c2cc(S(=O)(=O)[O-])ccc21
5. c1cc2c3ccc[n+]4cccc(c5ccc[n+](c1)c25)c34

Result:
0.60
0.32
-0.70
-0.52
0.83

// for each molecule below, give its log10(fluorescence lifetime)
1. O=C([O-])c1ccc(C2=c3cc4c5c(c3Oc3c2cc2c6c3CCCN6CCC2)CCC[N+]=5CCC4)c(C(=O)[O-])c1
2. Cc1ccc(C2CC(c3ccc(O)cc3)=NN2c2ccc(S(N)(=O)=O)cc2)cc1 (stereo not given)

Result:
[0.64, 0.53]

###

assay: solvent given as SMILES; settings: in ClCCl
Would you mind telling me the reported fluorescence lifetime of each entry?
Numbers only, in ns.

Worked cases, fluorescence lifetime given:
Structure Smiles String	Reading Unit	fluorescence lifetime
Nc1ccc2c(ccc3[n+]2[B-](F)(F)n2c-3cc3c4ccccc4c4ccccc4c32)c1	ns	2.96
CCCCCCCCOc1cc(/C=C/c2cc(OCCCCCCCC)c(/C=C/c3cc(OCCCCCCCC)c(/C=C/c4ccncc4)cc3OCCCCCCCC)cc2OCCCCCCCC)c(OCCCCCCCC)cc1/C=C/c1ccncc1	ns	1.27
F[B-]1(F)OC(C#Cc2ccccc2)=CC(c2ccccc2)=[O+]1	ns	0.94

Below: the item to evaluate.
Q: What value of fluorescence lifetime has been recorded for this entry: COc1cc(N(c2ccc(C=C(C#N)C#N)c(OC)c2)c2ccc(C=C(C#N)C#N)c(OC)c2)ccc1C=C(C#N)C#N
Result: 0.09

Value source: the Deep4Chem optical property database
